These measurements were taken from patent US7396837B2.

I'd be grateful if you could share measured CC50 for these entries.
System: IGROV
Assay: SRB colorimetric cell growth inhibition assay, IGROV
Type: cell-based
Conditions: human
Report the value in µM with no unit label.

Item: COc1cc(-c2c3n(c4c(=O)oc5cc(OC(=O)[C@@H](N)C(C)C)c(OC)cc5c24)CCc2cc(OC(=O)[C@@H](N)C(C)C)c(OC)cc2-3)ccc1OC(=O)[C@@H](N)C(C)C [Compound 135] | CC50: 8.76

For record COc1cc(-c2c3c4cc(OC)c(OC(=O)[C@@H](N)C(C)C)cc4oc(=O)c3n3ccc4c(OC(=O)[C@@H](N)C(C)C)c(OC)c(OC)cc4c23)ccc1OC(=O)[C@@H](N)C(C)C [Compound 35] the listed CC50 is 4.05

What the record says about COc1cc(-c2c3c4cc(OC)c(OC(=O)[C@@H](N)C(C)C)cc4oc(=O)c3n3ccc4c(OC(=O)[C@@H](N)C(C)C)c(OC)c(OC)cc4c23)ccc1OC(=O)[C@@H](N)C(C)C [Compound 190] : CC50 is 8.32

* * *

Test system: DU-145
Test: SRB colorimetric cell growth inhibition assay, DU-145
Assay type: cell-based
Settings: DU-145; cell killing (cytotoxic effect); read-out: LC50 DU-145
Consider the following compounds; for each one, report its CC50.
Unit µM implied. Number only.

CC50 reading for COc1cc2ccn3c(c(-c4ccc(OC(=O)[C@@H](N)C(C)C)c(OC)c4)c4c5cc(OC)c(OC(=O)[C@@H](N)C(C)C)cc5oc(=O)c43)c2cc1OC [Compound 19] : 6.85

Looking up COc1cc(-c2c3c4cc(OC)c(OC(=O)[C@H](C)N)cc4oc(=O)c3n3ccc4cc(O)c(OC)cc4c23)ccc1O.Cl [Compound 240] , I see its CC50 listed as 16.5

Data point: COc1cc2ccn3c(c(-c4ccc(OC(=O)[C@@H](N)C(C)C)c(OC)c4)c4c5cc(OC)c(OC(=O)[C@@H](N)C(C)C)cc5oc(=O)c43)c2cc1OC [Compound 14] ; CC50 = 14

The recorded CC50 for COc1cc(-c2c3c4cc(OC)c(OC(=O)[C@H](C)N)cc4oc(=O)c3n3ccc4c(OC(=O)[C@H](C)N)c(OC)c(OC)cc4c23)ccc1OC(=O)[C@H](C)N [Compound 191] is 11.7

For COc1cc2ccn3c(c(-c4ccc(OC(=O)[C@@H](N)Cc5ccccc5)c(OC)c4)c4c5cc(OC)c(OC(=O)[C@@H](N)Cc6ccccc6)cc5oc(=O)c43)c2cc1OC [Compound 13] the compound record lists CC50 as 12.4

* * *

Tested on: HT-29
Assay: SRB colorimetric cell growth inhibition assay, HT-29
Format: cell-based
Settings: Homo sapiens, HT-29, HT-29; GI=growth inhibition; read-out: GI50 HT-29
quantity: GI50 (µM)
Give your result in µM as a bare value.

The recorded GI50 for entry COc1cc(-c2c3c4cc(OC)c(O)cc4oc(=O)c3n3ccc4cc(O)c(OC)cc4c23)ccc1O [Compound 3, lamellarin D, reference compound] equals 5.33

The molecule COc1cc(-c2c3n(c4c(=O)oc5cc(OC(=O)[C@@H](N)Cc6ccccc6)c(OC)cc5c24)CCc2cc(OC(=O)[C@@H](N)Cc4ccccc4)c(OC)cc2-3)ccc1OC(=O)[C@@H](N)Cc1ccccc1 [Compound 115] showed GI50 equal to 2.92

Field GI50 (entry COc1cc(-c2c3n(c4c(=O)oc5cc(OC(=O)[C@@H]6CCCN6)c(OC)cc5c24)CCc2c-3cc(OC)c(OC)c2OC(=O)[C@@H]2CCCN2)ccc1OC(=O)[C@@H]1CCCN1 [Compound 118] ) reads 1.92

For COc1cc(-c2c3c4cc(OC)c(OC(=O)[C@H](N)C(C)C)cc4oc(=O)c3n3ccc4cc(OC(=O)[C@H](N)C(C)C)c(OC)cc4c23)ccc1OC(=O)[C@H](N)C(C)C [Compound 17] the molecule record lists GI50 as 0.342

The reported value for COc1cc(-c2c3n(c4c(=O)oc5cc(OC(=O)c6cc(F)c(F)c(F)c6F)c(OC)cc5c24)CCc2c-3cc(OC)c(OC)c2OC(=O)c2cc(F)c(F)c(F)c2F)ccc1OC(=O)c1cc(F)c(F)c(F)c1F [Compound 99] in terms of GI50 is 9.44

Field GI50 (entry COc1cc(-c2c3n(c4c(=O)oc5cc(OC(=O)[C@H](C)N)c(OC)cc5c24)CCc2c-3cc(OC)c(OC)c2OC(=O)[C@H](C)N)ccc1OC(=O)[C@H](C)N [Compound 96] ) reads 9.2

Please fill in: GI50 reported for COc1cc2c(cc1O)CCn1c-2cc2c3cc(OC)c(O)cc3oc(=O)c21 [Compound 196] = 8.46

Lab book: GI50 of COc1cc2ccn3c(c(-c4ccc(OC(=O)[C@@H](NC(=O)OC(C)(C)C)C(C)C)c(OC)c4)c4c5cc(OC)c(OC(=O)[C@@H](NC(=O)OC(C)(C)C)C(C)C)cc5oc(=O)c43)c2cc1OC [Compound 15] noted as 0.0473

The recorded GI50 for CC[C@H](C)[C@H](N)C(=O)Oc1ccc(-c2c3c4cc(OC)c(OC(=O)[C@@H](N)[C@@H](C)CC)cc4oc(=O)c3n3ccc4cc(OC(=O)[C@@H](N)[C@@H](C)CC)c(OC)cc4c23)cc1OC [Compound 209] is 3.38

GET /value?item= COc1cc2c(cc1OC)-c1c(-c3ccc(OC(=O)[C@H](C)N)c(OC)c3)c3c4cc(OC)c(OC(=O)[C@H](C)N)cc4oc(=O)c3n1CC2 [Compound 63] &field=GI50 returns 2.92
